Target: T1, TGFβ3 (R&D Systems)
T1 sequence (P10600 301-412, species assumed, looked up): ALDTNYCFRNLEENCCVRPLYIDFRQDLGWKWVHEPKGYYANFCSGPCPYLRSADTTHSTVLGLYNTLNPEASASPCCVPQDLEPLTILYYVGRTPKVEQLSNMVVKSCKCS
Assay: cell-based or functional assay
I'd be grateful if you could share measured TGFb3 IC50 (SMAD3 phosphorylation in CMVICs, AlphaLISA) for these entries.
Write the value in µg/mL as a bare number.

Documented TGFb3 IC50 (SMAD3 phosphorylation in CMVICs, AlphaLISA) of Felinized anti-TGFβ1,2,3 antibody VH3.2 - VL7 (antibody, V domains shown) VH: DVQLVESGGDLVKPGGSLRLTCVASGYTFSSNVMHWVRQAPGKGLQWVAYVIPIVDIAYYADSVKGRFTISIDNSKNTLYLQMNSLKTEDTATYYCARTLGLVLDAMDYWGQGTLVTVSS VL: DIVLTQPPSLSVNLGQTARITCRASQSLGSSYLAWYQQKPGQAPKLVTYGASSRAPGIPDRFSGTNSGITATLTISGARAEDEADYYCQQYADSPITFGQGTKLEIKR : 0.018

Documented TGFb3 IC50 (SMAD3 phosphorylation in CMVICs, AlphaLISA) of Felinized anti-TGFβ1,2,3 antibody VH2.1 - VL8 (antibody, V domains shown) VH: QVLLVQSGADVRKPGASVKIFCKASGYTFTSNVISWVRQTPAQGFEWMGGVIPIVDIANYAQRFKGRLVLTADTSTNTAYMELRSLKSADTAVYYCASTLGLVLDAMDYWGQGSLVTVSS VL: DIVMTQSPGSLAGSPGQQVTMNCRASQSLGSSYLAWYQQKPGQHPELLIYGASSRAPGVPDRFSGSGSGTDFTLTISNLQAEDVANYYCQQYADSPITFGQGTKLEIKR : 0.124

Documented TGFb3 IC50 (SMAD3 phosphorylation in CMVICs, AlphaLISA) of Caninized anti-TGFβ1,2,3 antibody VH3.5 - VL2 (antibody, V domains shown) VH: EVQLVQSAAEVKKPGASVKVSCKTSGYIFISNVISWVQQAPGAGLEWMGGVIPIVDIANYAQRFKGRVTLTADTSTNTVYMELSNLRTEDTAVYYCASTLGLVLDAMDYWGQGTLVTVSS VL: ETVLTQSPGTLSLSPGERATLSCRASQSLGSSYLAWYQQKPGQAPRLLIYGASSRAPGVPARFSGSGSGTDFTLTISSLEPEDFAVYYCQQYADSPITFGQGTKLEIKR : 0.981
